target: NaV1.7 (Homo sapiens); construct: expressed in transfected cells; tetracycline-inducible, kept under hygromycin and blasticidin; assay: Automated patch clamp (Qube 384), external block of NaV1.7 in HEK293 cells; format: cell-based; conditions: compound in external solution, read-out: Nav1.7 Extracellular Inhibition (IC50)
Sequence (Q15858 whole entry): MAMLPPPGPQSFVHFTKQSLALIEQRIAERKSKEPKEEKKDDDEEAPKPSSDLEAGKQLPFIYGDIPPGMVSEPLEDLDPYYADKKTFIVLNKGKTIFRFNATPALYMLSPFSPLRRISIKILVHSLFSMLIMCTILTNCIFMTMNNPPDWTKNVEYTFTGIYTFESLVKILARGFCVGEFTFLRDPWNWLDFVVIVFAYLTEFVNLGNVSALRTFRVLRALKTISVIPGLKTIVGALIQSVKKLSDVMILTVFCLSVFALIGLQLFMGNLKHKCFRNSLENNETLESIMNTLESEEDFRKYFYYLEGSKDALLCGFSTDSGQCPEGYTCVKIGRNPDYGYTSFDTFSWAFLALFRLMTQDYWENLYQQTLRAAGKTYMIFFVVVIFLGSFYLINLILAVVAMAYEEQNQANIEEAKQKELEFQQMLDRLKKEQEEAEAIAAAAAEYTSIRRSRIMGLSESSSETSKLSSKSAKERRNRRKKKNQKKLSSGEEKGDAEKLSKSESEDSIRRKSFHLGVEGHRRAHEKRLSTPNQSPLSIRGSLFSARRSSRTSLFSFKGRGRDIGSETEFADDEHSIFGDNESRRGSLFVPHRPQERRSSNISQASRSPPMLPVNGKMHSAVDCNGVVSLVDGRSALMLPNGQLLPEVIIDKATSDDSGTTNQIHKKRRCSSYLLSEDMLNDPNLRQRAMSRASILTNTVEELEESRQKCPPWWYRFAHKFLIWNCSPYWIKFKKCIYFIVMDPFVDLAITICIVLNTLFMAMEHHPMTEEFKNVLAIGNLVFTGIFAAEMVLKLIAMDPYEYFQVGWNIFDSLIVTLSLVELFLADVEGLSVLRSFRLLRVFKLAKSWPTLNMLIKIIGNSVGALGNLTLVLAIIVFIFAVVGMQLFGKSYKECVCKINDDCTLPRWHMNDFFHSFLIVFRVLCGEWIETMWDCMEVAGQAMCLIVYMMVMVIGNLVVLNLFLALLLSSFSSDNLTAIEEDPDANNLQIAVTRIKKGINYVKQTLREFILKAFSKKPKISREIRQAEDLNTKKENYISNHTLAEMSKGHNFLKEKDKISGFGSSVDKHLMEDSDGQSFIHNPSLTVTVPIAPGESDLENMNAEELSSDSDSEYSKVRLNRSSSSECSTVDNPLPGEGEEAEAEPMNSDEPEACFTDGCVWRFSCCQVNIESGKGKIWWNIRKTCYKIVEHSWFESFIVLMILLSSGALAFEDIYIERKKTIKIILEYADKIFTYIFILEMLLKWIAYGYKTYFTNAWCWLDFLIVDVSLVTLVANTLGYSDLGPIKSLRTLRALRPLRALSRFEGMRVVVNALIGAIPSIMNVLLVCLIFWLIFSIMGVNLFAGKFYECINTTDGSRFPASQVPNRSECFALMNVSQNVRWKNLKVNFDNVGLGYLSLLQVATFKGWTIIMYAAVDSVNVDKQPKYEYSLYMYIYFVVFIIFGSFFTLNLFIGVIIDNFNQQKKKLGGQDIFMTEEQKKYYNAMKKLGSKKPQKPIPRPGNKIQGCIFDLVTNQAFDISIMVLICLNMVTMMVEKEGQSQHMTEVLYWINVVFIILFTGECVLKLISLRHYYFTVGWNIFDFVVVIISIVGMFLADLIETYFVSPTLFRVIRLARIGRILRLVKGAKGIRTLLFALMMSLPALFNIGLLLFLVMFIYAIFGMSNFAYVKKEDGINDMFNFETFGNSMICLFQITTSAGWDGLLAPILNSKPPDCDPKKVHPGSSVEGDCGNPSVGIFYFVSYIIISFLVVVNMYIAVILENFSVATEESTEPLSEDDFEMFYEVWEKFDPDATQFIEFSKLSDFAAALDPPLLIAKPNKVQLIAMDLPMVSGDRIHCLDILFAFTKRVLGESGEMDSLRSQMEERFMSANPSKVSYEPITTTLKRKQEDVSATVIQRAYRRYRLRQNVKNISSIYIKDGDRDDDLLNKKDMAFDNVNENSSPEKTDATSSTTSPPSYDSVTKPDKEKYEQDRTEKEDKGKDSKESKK
quantity: IC50

[[record]]
compound = "COC(=O)c1c(F)c[n+](CC(=O)Nc2c(C)cccc2C)cc1F [Compound 89]"
tested_target = "NaV1.7 (Homo sapiens)"
quantity = "IC50"
data_value = "> 100 µM"

[[record]]
compound = "Cc1cccc(C)c1NC(=O)C[n+]1c(C)ccc(-c2ccccc2)c1C [Compound 23]"
tested_target = "NaV1.7 (Homo sapiens)"
quantity = "IC50"
data_value = "< 10 µM"

[[record]]
compound = "CCOC(=O)Cn1cc(C)c[n+]1CC(=O)Nc1c(C)cccc1C [Compound 76]"
tested_target = "NaV1.7 (Homo sapiens)"
quantity = "IC50"
data_value = "> 100 µM"

[[record]]
compound = "Cc1cccc(C)c1NC(=O)C[n+]1cccc(C(C)C)c1 [Compound 31]"
tested_target = "NaV1.7 (Homo sapiens)"
quantity = "IC50"
data_value = "> 100 µM"

[[record]]
compound = "Cc1cccc(C)c1NC(=O)C[n+]1c2ccc(Cl)cc2cn1C [Compound 96]"
tested_target = "NaV1.7 (Homo sapiens)"
quantity = "IC50"
data_value = "30 to 100 µM"

[[record]]
compound = "Cc1cccc(C)c1NC(=O)C[n+]1ccc(C(N)=O)c(C(F)(F)F)c1 [Compound 90]"
tested_target = "NaV1.7 (Homo sapiens)"
quantity = "IC50"
data_value = "> 100 µM"

[[record]]
compound = "CCCC(C(=O)Nc1c(C)cccc1C)[n+]1ccccc1 (stereo not shown) [Compound 107]"
tested_target = "NaV1.7 (Homo sapiens)"
quantity = "IC50"
data_value = "> 100 µM"

[[record]]
compound = "Cc1cccc(C)c1NC(=O)C[n+]1cccc(C2CCCC2)c1 [Compound 21]"
tested_target = "NaV1.7 (Homo sapiens)"
quantity = "IC50"
data_value = "< 10 µM"

[[record]]
compound = "CCOC(=O)CCCn1ccc[n+]1CC(=O)Nc1c(C)cccc1C [Compound 75]"
tested_target = "NaV1.7 (Homo sapiens)"
quantity = "IC50"
data_value = "> 100 µM"

[[record]]
compound = "CNC(=O)c1ccc[n+](CC(=O)Nc2c(C)cccc2C)c1 [Compound 40]"
tested_target = "NaV1.7 (Homo sapiens)"
quantity = "IC50"
data_value = "> 100 µM"

[[record]]
compound = "Cc1cccc(C)c1NC(=O)C[n+]1cccn1-c1ccccc1 [Compound 29]"
tested_target = "NaV1.7 (Homo sapiens)"
quantity = "IC50"
data_value = "> 100 µM"

[[record]]
compound = "Cc1cccc(C)c1NC(=O)Cn1ccc[n+]1CC(=O)Nc1c(C)cccc1C [Compound 109]"
tested_target = "NaV1.7 (Homo sapiens)"
quantity = "IC50"
data_value = "> 100 µM"

[[record]]
compound = "Cc1cccc(C)c1NC(=O)C[n+]1c(C)ccn1C(C)C [Compound 102]"
tested_target = "NaV1.7 (Homo sapiens)"
quantity = "IC50"
data_value = "> 100 µM"

[[record]]
compound = "Cc1cccc(C)c1NC(=O)C[n+]1cccc(C2CC2)c1 [Compound 22]"
tested_target = "NaV1.7 (Homo sapiens)"
quantity = "IC50"
data_value = "30 to 100 µM"

[[record]]
compound = "CCOC(=O)Cn1c(C)cc[n+]1CC(=O)Nc1c(C)cccc1C [Compound 86]"
tested_target = "NaV1.7 (Homo sapiens)"
quantity = "IC50"
data_value = "> 100 µM"

[[record]]
compound = "Cc1cccc(C)c1NC(=O)C[n+]1cccn1Cc1ccccc1 [Compound 92]"
tested_target = "NaV1.7 (Homo sapiens)"
quantity = "IC50"
data_value = "> 100 µM"

[[record]]
compound = "CCn1ccc(C)[n+]1CC(=O)Nc1c(C)cccc1C [Compound 95]"
tested_target = "NaV1.7 (Homo sapiens)"
quantity = "IC50"
data_value = "> 100 µM"

[[record]]
compound = "Cc1cccc(C)c1NC(=O)C[n+]1cc(F)cc(-c2ccccc2)c1 [Compound 77]"
tested_target = "NaV1.7 (Homo sapiens)"
quantity = "IC50"
data_value = "10 to 30 µM"

[[record]]
compound = "Cc1cccc(C)c1NC(=O)C[n+]1cc2ccccc2n1C [Compound 54]"
tested_target = "NaV1.7 (Homo sapiens)"
quantity = "IC50"
data_value = "30 to 100 µM"

